Values compiled from PubChem BioAssay (NCI).

I'd be grateful if you could share measured TGI for these entries.
# System: MOLT-4 leukemia
# run.description: NCI tumour cell line growth inhibition, 48 h
The figure you give is taken to be in µM; do not add the unit.

# lookup: CCC1C(c2cccc(OC)c2O)c2cc3c(cc2OC1N1CCCC1)OCO3 (stereo unspecified) on MOLT-4 leukemia, TGI = 45

# lookup: COc1ccc(N2C(=Nc3ccccc3)SC(=N/S(=O)(=O)c3ccccc3)/C2=N\S(=O)(=O)c2ccccc2)cc1 on MOLT-4 leukemia, TGI = 45.6

# lookup: CCOC(=O)c1sc2nc(SC)nc3c2c1NC(=O)CN3c1cccc(F)c1 on MOLT-4 leukemia, TGI = 67.7

# lookup: CCCCCCCCCCN(CCCCCCCCCC)CC(=O)c1ccc2cc(Br)c3ccccc3c2c1 on MOLT-4 leukemia, TGI = 6.2

# lookup: N#Cc1c(SCc2ccccc2)nc(-c2ccccc2)[nH]c1=S on MOLT-4 leukemia, TGI = 85.2

* * *

I'd be grateful if you could share measured TGI for these entries.
# Tested on: SF-268 CNS
# run.description: NCI tumour cell line growth inhibition, 48 h

Briefly, TGI measured for CCOC(=O)Nc1c(C#N)[n+]([O-])c2cc(Cl)c(Cl)cc2[n+]1[O-] : 34.3 µM

Briefly, TGI measured for O=C1NC(N/N=C\C(O)C(O)C(O)CO)=N/C1=C/c1ccc(Cl)cc1 (stereo unspecified) : > 100 µM

Briefly, TGI measured for CCCCCCCCCCN(CCCCCCCCCC)CC(=O)c1ccc2cc(Br)c3ccccc3c2c1 : 9.47 µM

Briefly, TGI measured for COc1cc(OC)c2c(O)c3c(cc2c1)CC(C)(C)CC3=O : > 100 µM

Briefly, TGI measured for COc1ccc(S(=O)(=O)O)cc1-n1nc(C(=O)Nc2ccccc2)n[n+]1-c1cc(S(=O)(=O)[O-])ccc1OC : > 100 µM

Briefly, TGI measured for N#Cc1cnc2cc(OC[C@@H](O)CO)c(NC(=O)CC3CSSC3)cc2c1Nc1ccc(OCc2cccc(F)c2)c(Cl)c1 : 0.771 µM

Briefly, TGI measured for Cc1ccc(N=Nc2c(O)ccc3cc(S(=O)(=O)O)ccc23)c(C)c1 : > 100 µM

Briefly, TGI measured for COC(=O)C(C)(N=Cc1ccccc1)c1ccccc1 (stereo unspecified) : > 100 µM

Briefly, TGI measured for CC(C)(C)NCc1cc(C(C)(C)C)cc(-c2ccc(Cl)cc2)c1O : 30.8 µM

Briefly, TGI measured for C1CSCCCSCCSCCCSC1 : > 100 µM

Briefly, TGI measured for COC(=O)c1sc(C(=O)OC)c2c1CSC2 : > 100 µM

Briefly, TGI measured for O=C(O)/C(=C/c1c(O)ccc2ccccc12)c1csc(-c2nc(/C(=C\c3c(O)ccc4ccccc34)C(=O)O)cs2)n1 : 26.3 µM

Briefly, TGI measured for Cc1sc2nc(-c3cc([N+](=O)[O-])c(Cl)cc3Cl)c(/C=N/N=C(N)N)n2c1C : 66.1 µM

Briefly, TGI measured for NC(=O)N/N=C/C(/C=N/NC(N)=O)[N+](=O)[O-] : > 100 µM

Briefly, TGI measured for COc1cccc(NC(=O)CC(=O)N2N=C(N(CCC#N)c3ccccc3C)CC2c2ccccc2)c1 (stereo unspecified) : > 100 µM

Briefly, TGI measured for Cc1c(C(=O)NCCO)[n+](=O)c2cc(Cl)ccc2n1[O-] : > 100 µM

Briefly, TGI measured for COc1cc(/C=C2\CC3C4CC=C5C[C@@H](OC(C)=O)CC[C@]5(C)C4CC[C@]3(C)C2=O)ccc1OCCCn1ccnc1 (stereo partly specified) : 21.5 µM

Briefly, TGI measured for NCCCn1c2ccccc2c2c3c(c4c(c21)CCC(O)CC4)C(=O)NC3=O (stereo unspecified) : 4.43 µM

Briefly, TGI measured for CCCCCCCC(=O)OC(CBr)COC(=O)C(C)(C)C (stereo unspecified) : > 100 µM

Briefly, TGI measured for O=C(Nc1nc2ccccc2n1Cc1ccccc1)NC12CC3CC(CC(C3)C1)C2 : 35.5 µM

Briefly, TGI measured for CCCCCCCCCCCCCCCCCCNc1ccn(C2OC(COP(=O)(O)OCC3CCC(n4cnc5c(=O)[nH]cnc54)O3)C(O)C2O)c(=O)n1 (stereo unspecified) : > 100 µM

Briefly, TGI measured for C=C=C(CC)C(C(=O)OC)N(CC)CC (stereo unspecified) : > 100 µM

Briefly, TGI measured for COC1=C(N=[N+]=[N-])C(=O)c2ncccc2C1=O : 28.5 µM

Briefly, TGI measured for CC(=O)OCC1OC(n2cc(F)c(=O)[nH]c2=O)C(N)C(OC(C)=O)C1OC(C)=O (stereo unspecified) : > 100 µM

Briefly, TGI measured for CCOc1cc(NC(C)=O)ccc1C(=O)NN1C(=O)C(Oc2ccccc2)C1c1ccccc1 (stereo unspecified) : > 100 µM

Briefly, TGI measured for CO/C1=C\C(C)=C\C(C)C(O)C(C)C/C(C)=C/C=C/C(OC)C(C(C)C(O)C(C)C2(O)CC(O)C(C)C(C(C)C)O2)OC1=O (stereo unspecified) : 19.5 µM

Briefly, TGI measured for O=C(NCCC(F)(F)C(F)(F)C(F)(F)C(F)(F)F)NC1OC(CO)C(O)C(O)C1O (stereo unspecified) : > 100 µM

Briefly, TGI measured for CCN(CC)CCCOC(=O)/C=C/c1c(C)[nH]c(=O)[nH]c1=O : > 625 µM

Briefly, TGI measured for FC(F)(F)c1ccccc1N1CCN(c2nc(-c3cccs3)nc3ccc(Br)cc23)CC1 : > 100 µM

Briefly, TGI measured for NC(=O)c1nnc2cc(F)ccc2c1N : > 100 µM

Briefly, TGI measured for CC12CCC(C(=O)O1)C(C)(C)O2 (stereo unspecified) : > 100 µM

Briefly, TGI measured for O=c1c(SSc2coc3cc(F)ccc3c2=O)coc2cc(F)ccc12 : > 100 µM

Briefly, TGI measured for CCOC(=O)C1(Cc2ccccc2)CCCCCN1 (stereo unspecified) : > 100 µM

Briefly, TGI measured for CC(C)SC(C)(NC(=O)C1C(C)(C)CCC1(C)C)C(=O)O (stereo unspecified) : > 100 µM

Briefly, TGI measured for COc1cc2noc(-c3ccccc3)c2cc1OC : > 100 µM

Briefly, TGI measured for CCOC(=O)N1CCN(c2ccc3c(C)cc(C)nc3n2)CC1 : > 100 µM

* * *

# Tested on: SK-MEL-5 melanoma
# run.description: NCI tumour cell line growth inhibition, 48 h
I'd be grateful if you could share measured TGI for these entries.

Briefly, TGI measured for OCC1OC(n2ccc3c(NO)ncnc32)C(O)C1O (stereo unspecified) : 0.325 µM

Briefly, TGI measured for CCCCCC(=O)N[C@@H](c1ccccc1)C(O)C(=O)OC1C[C@@]2(O)C(OC(=O)c3ccccc3)C3[C@](C)(C(=O)[C@H](O)C(=C1C)C2(C)C)C(OC1OCC(O)C(O)C1O)C[C@H]1OC[C@@]31OC(C)=O (stereo partly specified) : > 100 µM

Briefly, TGI measured for COc1c(C(=O)O)oc2c(OC)cccc12 : > 100 µM

Briefly, TGI measured for C1CCN(c2nsc(N3CCCCC3)n2)CC1 : > 100 µM

Briefly, TGI measured for COC(=O)C(CCc1ccccc1I)C1=CCC2(CC1)OCCO2 (stereo unspecified) : 40 µM

Briefly, TGI measured for NNc1cccc(/C=C/c2ccccc2)cc1=O : > 100 µM

Briefly, TGI measured for O=C1O/C(=C(\Br)c2cccc3ccccc23)c2ccccc21 : 51.1 µM

Briefly, TGI measured for O=C1C[C@@H]2C(COC(=O)c3ccccc3)N(OCc3ccccc3)C[C@@H]2O1 (stereo partly specified) : > 100 µM

Briefly, TGI measured for O=C(Nc1c[nH]c(=O)[nH]c1=O)C(Cl)Cl : > 100 µM

Briefly, TGI measured for Cc1ccc(S(=O)(=O)/N=C(\NN)Nc2ccc(Cl)cc2)cc1 : > 100 µM

Briefly, TGI measured for CCOc1ccc(/C=C(\Cl)c2ccc(OC)c(OC)c2)cc1 : > 100 µM

Briefly, TGI measured for [Se]=P(c1ccccc1)(c1ccccc1)c1ccc(C(c2ccccc2)=P(c2ccccc2)(c2ccccc2)c2ccccc2)cc1 : 1.64 µM

Briefly, TGI measured for Cn1ccn2c3nc4ccccc4nc3c(=O)c(C#N)c12 : > 13.4 µM

Briefly, TGI measured for COc1ccc2cc1Oc1ccc(cc1)C(Sc1ccccc1)CCOC(=O)CC2 (stereo unspecified) : > 100 µM

Briefly, TGI measured for O=c1[nH]nc(-c2ccccc2)n1/N=C/c1c[nH]c2ccccc12 : > 100 µM

Briefly, TGI measured for COC(=O)c1cc(NC(=O)c2cc(NC(=O)c3cc([N+](=O)[O-])cn3C)cn2C)cn1C : 91.9 µM

Briefly, TGI measured for Cc1ccnc2[nH]c(-c3cccc(Cl)c3)cc(=O)c12 : > 35.7 µM

Briefly, TGI measured for COc1cc2c3c(n(CCCNCCN)c(=O)c2cc1OC)-c1cc2c(cc1C3=O)OCO2 : 6.77 µM

Briefly, TGI measured for Clc1cc2c(c(CSC3=NCN(CC4CC4)CN3)c1)OCOC2 : 32.2 µM

Briefly, TGI measured for Clc1ccc(Cc2nc3ccc(CCN4CCN(c5ccccc5)CC4)cc3[nH]2)cc1 : 25.3 µM

Briefly, TGI measured for Clc1ccc2sc(-n3ccc4ccccc43)nc2c1 : > 100 µM
